Values compiled from the CheMixHub drug solubility set.

testDetails: xn = mol fraction of the nth substance listed, in the solute-free solvent
experimentalConditions: 313.15 K; x2 = 0.4
quantityName: solubility (g/100 g solution)
Just the number, please, no unit attached.

Given the entry CC(C)C(=O)Nc1ccc([N+](=O)[O-])c(C(F)(F)F)c1 + CCOC(C)=O + CC(C)O , report its measured solubility (g/100 g solution). 55.8

Need solubility (g/100 g solution), item CC(C)C(=O)Nc1ccc([N+](=O)[O-])c(C(F)(F)F)c1 + CC(C)=O + CC(C)O 62.2

Which solubility (g/100 g solution) is listed for Cl.NC1CCSC1=O (centres undefined) + CO + CC#N ? 2.56

Give the measured solubility (g/100 g solution) of CC(C)C(=O)Nc1ccc([N+](=O)[O-])c(C(F)(F)F)c1 + C1CCOC1 + CC(C)O . 63.1

* * *

testDetails: xn = mol fraction of the nth substance listed, in the solute-free solvent
experimentalConditions: 303.15 K; x2 = 0.7788
quantityName: solubility (g/100 g solution)

For the compound shown here, CC(C)C(=O)Nc1ccc([N+](=O)[O-])c(C(F)(F)F)c1 + CCO + O , give the reported solubility (g/100 g solution). 27.7

Given Nc1cc(-c2ccncc2)c[nH]c1=O + CCO + O , state its recorded solubility (g/100 g solution). 0.0229

State the recorded solubility (g/100 g solution) for this entry: O=c1cc(CBr)c2ccccc2[nH]1 + CCO + O 0.165

So what's the measured solubility (g/100 g solution) for this one? Nc1ncc(Br)nc1Br + CCO + O 0.891

Quick check: solubility (g/100 g solution) of O=C1C=CC(=O)N1c1ccccc1Br + CCO + O ? 13.6

* * *

Can you tell me solubility (g/100 g solution) for the items I'm about to list?
testDetails: xn = mol fraction of the nth substance listed, in the solute-free solvent
experimentalConditions: 303.15 K; x2 = 0.08908
// response body must contain only the number

Would you kindly share the measured solubility (g/100 g solution) for Nc1ncc(Br)nc1Br + CCO + O ? 0.128

Given the compound O=c1cc(CBr)c2ccccc2[nH]1 + CCO + O , what is its reported solubility (g/100 g solution)? 0.0694

Give its solubility (g/100 g solution) value. Item: O=C1C=CC(=O)N1c1ccccc1Br + CCO + O 2.94

For the compound CC(C)C(=O)Nc1ccc([N+](=O)[O-])c(C(F)(F)F)c1 + CCO + O , what solubility (g/100 g solution) is on record? 0.0632

Which solubility (g/100 g solution) reading was recorded for the compound Nc1cc(-c2ccncc2)c[nH]c1=O + CCO + O ? 0.00384

* * *

testDetails: xn = mol fraction of the nth substance listed, in the solute-free solvent
experimentalConditions: 293.15 K; x2 = 0.3698
quantityName: solubility (g/100 g solution)
# respond with the number and nothing more

Could you tell me which solubility (g/100 g solution) is on file for O=C1C=CC(=O)N1c1ccccc1Br + CCO + O ? 7.63

Which solubility (g/100 g solution) is reported for this molecule? Nc1ncc(Br)nc1Br + CCO + O 0.412

Would you mind telling me what solubility (g/100 g solution) value was observed for O=c1cc(CBr)c2ccccc2[nH]1 + CCO + O ? 0.111

# lookup: solubility (g/100 g solution) of Nc1cc(-c2ccncc2)c[nH]c1=O + CCO + O 0.0103

Any idea what its solubility (g/100 g solution) is? The molecule is CC(C)C(=O)Nc1ccc([N+](=O)[O-])c(C(F)(F)F)c1 + CCO + O 3.88
